Molecular target: catalytic subunit of PKA, isoform alpha, residues 16-351 (PKAcα_(16-351)), preparation for ITC (mouse, UniProt P05132-1 16-351)
Assay: ITC; peptide or substrate (1.25 to 4.3 mM) titrated into the cell containing PKAc (149 to 204 μM); 4 °C; 50 mM Hepes (pH 7.4), 150 mM KCl, 5 mM MgCl2, 2 mM TCEP; 0.5 mM AMP-PNP in both solutions
Details: both partners purified
Measured Metric: dH (kcal/mol)
Dear colleague, please return just the value in kcal/mol, with no unit written.

According to the records, this binder RGFLRSASLGRRASFHL (human CaV1.2 (α1c subunit) C-terminal tail, residues 1968-1984 around the PKA site Ser1981; also called S1981 peptide; CaV1.2 S1981 peptide; source: synthetic peptide) [CaV1.2 Ser1981 peptide] displays dH of 3.11

According to the records, this binder ARRQAGTRRRESLGK (Rad GTPase C-terminal tail, residues 261-275 around Ser272; also called Rad S272 peptide; S272 peptide; source: synthetic peptide) [Rad Ser272 peptide] displays dH of -4.06

According to the records, this binder RGFARSASLGRRASFHL (also called L1971A peptide; S1981 (L1971A); source: synthetic peptide) [CaV1.2 Ser1981 peptide L1971A] displays dH of 2.63

According to the records, this binder GAGRERDRRRGSTPW (Rad GTPase N-terminal tail, residues 14-28 around Ser25; also called Rad S25 peptide; source: synthetic peptide) [Rad Ser25 peptide] displays dH of -2.61

According to the records, this binder RGFLRSASLGRRASAHL (human CaV1.2 residues 1968-1984 with F1982A (P+1 position); also called F1982A peptide; S1981 (F1982A); source: synthetic peptide) [CaV1.2 Ser1981 peptide F1982A] displays dH of 2.46

According to the records, this binder RGFLRSARLGRRASFHL (also called S1975R peptide; S1981 (S1975R); source: synthetic peptide) [CaV1.2 Ser1981 peptide S1975R] displays dH of 3.35
